// reported Kd for each item listed
# MEASUREMENT_DESCRIPTION: Probe calibration by titration with FFA / FFA-BSA complexes: LA
# Assay type: binding
# MEASUREMENT_SETUP: equilibrium dissociation constant of probe for LA
Your reply should be a number followed by the unit it is expressed in.

MOLECULE	Kd
L11P7 B3 V26C: acrylodan-labeled mutant FABP probe: M21F, V26C, L72A, L78V, L102V (protein, UniProt P02693 2-132, looked up, variant M21F V26C L72A L78V L102V, acrylodan label, acrylodan-labeled mutant FABP probe: M21F, V26C, L72A, L78V, L102V) Fatty acid-binding protein, …: AFDGTWKVDRNENYEKFMEKFGINVCKRKLGAHDNLKLTITQEGNKFTVKESSNFRNIDVVFELGVDFAYSAADGTEVTGTWTMEGNKLVGKFKRVDNGKEVIAVREISGNELIQTYTYEGVEAKRIFKKE	0.0039 µM

Fill in the blank: the reported Kd of L10P7 A4 L30C: acrylodan-labeled mutant FABP probe: Y14L, M18L, K27A, L30C, G31Y, A73L, Y117A (protein, UniProt P02693 2-132, looked up, variant Y14L M18L K27A L30C G31Y A73L Y117A, acrylodan label, acrylodan-labeled mutant FABP probe: Y14L, M18L, K27A, L30C, G31Y, A73L, Y117A) Fatty acid-binding protein, …: AFDGTWKVDRNENLEKFLEKMGINVVARKCYAHDNLKLTITQEGNKFTVKESSNFRNIDVVFELGVDFAYSLLDGTELTGTWTMEGNKLVGKFKRVDNGKELIAVREISGNELIQTATYEGVEAKRIFKKE is ____. 0.0011 µM

Fill in the blank: the reported Kd of L2P22 G6: acrylodan-labeled mutant FABP probe: M18I, G31Y, A73G (protein, UniProt P02693 2-132, looked up, variant M18I G31Y A73G, acrylodan label, acrylodan-labeled mutant FABP probe: M18I, G31Y, A73G) Fatty acid-binding protein, …: AFDGTWKVDRNENYEKFIEKMGINVVKRKLYAHDNLKLTITQEGNKFTVKESSNFRNIDVVFELGVDFAYSLGDGTELTGTWTMEGNKLVGKFKRVDNGKELIAVREISGNELIQTYTYEGVEAKRIFKKE is ____. 0.0422 µM

Fill in the blank: the reported Kd of ADIFAB2: acrylodan-labeled (lysine 27) mutant FABP probe: L72A (protein, UniProt P02693 2-132, looked up, variant L72A, acrylodan label on K27, acrylodan-labeled (lysine 27) mutant FABP probe: L72A) Fatty acid-binding protein, …: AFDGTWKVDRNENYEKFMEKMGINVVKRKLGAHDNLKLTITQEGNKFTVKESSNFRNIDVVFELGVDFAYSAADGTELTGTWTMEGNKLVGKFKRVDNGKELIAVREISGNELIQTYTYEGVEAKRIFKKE is ____. 0.101 µM
